- assay system: Voltage-gated inwardly rectifying potassium channel KCNH2 (Homo sapiens); also: assay procedure not described here
- Sequence (Q12809 whole entry): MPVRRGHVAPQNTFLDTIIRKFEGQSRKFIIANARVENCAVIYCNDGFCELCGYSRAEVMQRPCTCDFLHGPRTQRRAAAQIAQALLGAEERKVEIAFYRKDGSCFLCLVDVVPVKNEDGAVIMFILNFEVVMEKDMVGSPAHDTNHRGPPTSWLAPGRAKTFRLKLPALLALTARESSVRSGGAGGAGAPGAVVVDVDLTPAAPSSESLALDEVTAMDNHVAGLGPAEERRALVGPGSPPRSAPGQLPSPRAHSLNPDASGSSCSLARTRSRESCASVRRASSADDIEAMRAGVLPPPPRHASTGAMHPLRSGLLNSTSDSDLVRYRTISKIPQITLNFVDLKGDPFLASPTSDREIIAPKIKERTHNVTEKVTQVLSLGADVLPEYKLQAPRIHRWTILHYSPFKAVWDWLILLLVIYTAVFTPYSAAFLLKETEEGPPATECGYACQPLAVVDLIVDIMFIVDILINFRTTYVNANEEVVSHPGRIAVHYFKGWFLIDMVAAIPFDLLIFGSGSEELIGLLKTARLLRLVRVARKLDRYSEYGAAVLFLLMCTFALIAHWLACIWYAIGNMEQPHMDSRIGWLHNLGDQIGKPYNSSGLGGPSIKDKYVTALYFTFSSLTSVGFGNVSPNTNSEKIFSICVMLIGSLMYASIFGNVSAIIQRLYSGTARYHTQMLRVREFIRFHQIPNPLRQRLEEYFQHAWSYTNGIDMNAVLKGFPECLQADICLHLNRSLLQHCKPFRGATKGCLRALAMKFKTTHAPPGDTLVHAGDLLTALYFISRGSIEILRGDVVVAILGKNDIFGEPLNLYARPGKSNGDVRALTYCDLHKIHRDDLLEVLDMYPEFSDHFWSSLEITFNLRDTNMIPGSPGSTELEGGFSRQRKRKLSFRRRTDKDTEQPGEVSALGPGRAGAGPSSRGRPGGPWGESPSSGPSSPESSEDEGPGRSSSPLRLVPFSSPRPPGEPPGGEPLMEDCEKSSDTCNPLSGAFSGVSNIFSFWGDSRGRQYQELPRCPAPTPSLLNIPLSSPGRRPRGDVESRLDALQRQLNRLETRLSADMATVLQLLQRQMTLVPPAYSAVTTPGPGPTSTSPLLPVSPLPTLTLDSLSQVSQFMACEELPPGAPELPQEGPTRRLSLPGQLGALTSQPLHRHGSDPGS
- Type: functional
- test parameters: read-out: AC50
quantity name: AC50

>>> meas_value("CS(=O)(=O)Nc1cc2occ(NC=O)c(=O)c2cc1Oc1ccccc1")
"> 30 µM"
>>> meas_value("Nc1nc(N)c2nc(-c3ccccc3)c(N)nc2n1")
"> 30 µM"
>>> meas_value("CN1CC(=O)N2[C@H](c3ccc4c(c3)OCO4)c3[nH]c4ccccc4c3C[C@@H]2C1=O")
"> 30 µM"

Ask: Report AC50 for Cc1c(O)cccc1C(=O)N[C@@H](CSc1ccccc1)[C@H](O)CN1C[C@H]2CCCC[C@H]2C[C@H]1C(=O)NC(C)(C)C
Result: > 30 µM

Ask: Report AC50 for C#C[C@]1(O)CC[C@H]2[C@@H]3CCC4=CC(=O)CC[C@@H]4[C@H]3CC[C@@]21CC
Result: > 30 µM

Ask: Report AC50 for C#CCN[C@@H]1CCc2ccccc21
Result: > 30 µM

* * *

- assay system: Alpha-2A adrenergic receptor (Homo sapiens); also: assay procedure not described here
- Sequence (P08913 whole entry): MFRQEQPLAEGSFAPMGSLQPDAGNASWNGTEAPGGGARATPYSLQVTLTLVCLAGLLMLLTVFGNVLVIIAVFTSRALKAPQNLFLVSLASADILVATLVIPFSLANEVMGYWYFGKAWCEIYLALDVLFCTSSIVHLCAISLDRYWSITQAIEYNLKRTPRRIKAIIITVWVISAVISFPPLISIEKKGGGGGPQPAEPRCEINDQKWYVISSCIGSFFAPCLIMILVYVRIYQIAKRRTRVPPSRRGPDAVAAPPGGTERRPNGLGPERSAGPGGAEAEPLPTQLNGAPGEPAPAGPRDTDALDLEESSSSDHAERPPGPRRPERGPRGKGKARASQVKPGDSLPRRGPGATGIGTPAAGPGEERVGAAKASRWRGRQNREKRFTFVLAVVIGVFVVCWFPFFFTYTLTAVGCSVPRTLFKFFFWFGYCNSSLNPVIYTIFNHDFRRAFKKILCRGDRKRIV
- Assay type: functional, cell-based
quantity name: AC50

Before answering, review these 3 worked examples.
>>> meas_value("CN1CCCC(n2nc(Cc3ccc(Cl)cc3)c3ccccc3c2=O)CC1 (configuration not stated) [AZELASTINE]")
"> 30 µM"
>>> meas_value("CN1CCCN=C1COC(=O)C(O)(c1ccccc1)C1CCCCC1 (configuration not stated) [OXYPHENCYCLIMINE]")
"> 10 µM"
>>> meas_value("NC(=O)c1ncn([C@@H]2O[C@H](CO)[C@@H](O)[C@H]2O)c1O [MIZORIBINE]")
"> 30 µM"

Ask: Fill in: AC50 on Alpha-2A adrenergic receptor (Homo sapiens), entry Cc1ccc(C(=O)c2cc(O)c(O)c([N+](=O)[O-])c2)cc1 [TOLCAPONE]
Result: > 10 µM

Ask: Fill in: AC50 on Alpha-2A adrenergic receptor (Homo sapiens), entry C[C@H]1C[C@@H]2[C@H]([C@@H](O)C[C@@]3(C)[C@H]2CC[C@]3(O)C(=O)COC(=O)CCC(=O)O)[C@@]2(C)C=CC(=O)C=C12 [METHYLPREDNISOLONE HEMISUCCINATE]
Result: > 30 µM

* * *

- assay system: Histamine H2 receptor (Homo sapiens); also: assay procedure not described here
- Sequence (P25021 whole entry): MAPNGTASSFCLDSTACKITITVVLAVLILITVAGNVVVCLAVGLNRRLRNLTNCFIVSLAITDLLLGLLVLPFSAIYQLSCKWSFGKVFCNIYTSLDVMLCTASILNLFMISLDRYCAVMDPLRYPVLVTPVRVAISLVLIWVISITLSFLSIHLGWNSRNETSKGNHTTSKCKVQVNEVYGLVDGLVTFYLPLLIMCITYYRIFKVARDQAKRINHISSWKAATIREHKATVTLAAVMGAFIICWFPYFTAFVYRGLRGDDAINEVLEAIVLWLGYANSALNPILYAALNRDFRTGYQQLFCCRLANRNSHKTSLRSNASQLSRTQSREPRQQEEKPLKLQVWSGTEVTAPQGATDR
- Format: functional, cell-based
quantity name: AC50

>>> meas_value("COc1cc2c(cc1OC)C(=O)C(CC1CCN(Cc3ccccc3)CC1)C2 (configuration not stated)")
"> 10 µM"
>>> meas_value("CC(C)[N+](C)(CCC(C(N)=O)(c1ccccc1)c1ccccc1)C(C)C [ISOPROPAMIDE]")
"> 10 µM"
>>> meas_value("COc1ccc2cccc(CCNC(C)=O)c2c1")
"> 30 µM"
>>> meas_value("CC(=O)OCC(=O)[C@@]1(O)CC[C@H]2[C@@H]3CCC4=CC(=O)CC[C@]4(C)[C@H]3C(=O)C[C@@]21C [CORTISONE ACETATE]")
"> 30 µM"
>>> meas_value("CC(=O)N[C@H]1[C@H]([C@H](O)[C@H](O)CO)OC(C(=O)O)=C[C@@H]1N=C(N)N")
"> 30 µM"
>>> meas_value("C[C@@H]1O[C@@H]1P(=O)(O)O")
"> 10 µM"
>>> meas_value("COC(=O)N[C@H](C(=O)N1CCC[C@H]1c1nc(-c2ccc(-c3ccc(-c4c[nH]c([C@@H]5CCCN5C(=O)[C@@H](NC(=O)OC)C(C)C)n4)cc3)cc2)c[nH]1)C(C)C")
"> 30 µM"
>>> meas_value("CCN(CC)CCOC(=O)c1ccc(N)cc1")
"> 10 µM"
>>> meas_value("CN1CCC2=C(C1)C(c1ccccc1)c1ccccc12 (configuration not stated)")
"> 10 µM"
>>> meas_value("CCCCOc1cc(C(=O)NCCN(CC)CC)c2ccccc2n1")
"> 10 µM"

# evaluate next
Ask: Report AC50 for CC(Cc1ccccc1)NCCC(c1ccccc1)c1ccccc1 (configuration not stated)
Result: > 30 µM

* * *

Property: AC50; scope: individual compounds
- assay system: Gamma-aminobutyric acid receptor subunit alpha-1 (Rattus norvegicus, UniProt P62813); also: assay procedure not described here
- Sequence (P62813 whole entry): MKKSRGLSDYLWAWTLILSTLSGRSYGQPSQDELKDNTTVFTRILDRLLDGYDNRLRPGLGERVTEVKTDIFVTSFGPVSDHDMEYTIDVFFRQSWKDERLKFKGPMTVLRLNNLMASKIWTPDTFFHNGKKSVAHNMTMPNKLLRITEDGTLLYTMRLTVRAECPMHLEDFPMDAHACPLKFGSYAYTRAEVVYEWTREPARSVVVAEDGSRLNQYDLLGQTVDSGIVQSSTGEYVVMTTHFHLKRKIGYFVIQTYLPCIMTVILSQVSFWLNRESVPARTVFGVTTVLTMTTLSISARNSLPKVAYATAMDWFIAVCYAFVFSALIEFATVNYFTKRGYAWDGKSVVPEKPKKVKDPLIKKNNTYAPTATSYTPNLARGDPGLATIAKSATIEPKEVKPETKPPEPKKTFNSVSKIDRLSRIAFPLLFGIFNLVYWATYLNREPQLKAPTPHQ
- Type: functional

Before answering, review these 8 worked examples.
>>> meas_value("COC(=O)C1=C(C)NC(C)=C(C(=O)OCC(C)C)C1c1ccccc1[N+](=O)[O-] (stereo not given)")
"> 10 µM"
>>> meas_value("O=C(O)Cc1cn(-c2ccccc2)nc1-c1ccc(Cl)cc1")
"> 30 µM"
>>> meas_value("C[N+](C)(C)CC(=O)O")
"> 30 µM"
>>> meas_value("O=C(NC[C@H]1CN(c2ccc(N3CCOCC3=O)cc2)C(=O)O1)c1ccc(Cl)s1")
"> 30 µM"
>>> meas_value("CCNC(C)Cc1cccc(C(F)(F)F)c1 (stereo not given)")
"> 10 µM"
>>> meas_value("CCC(C(=O)O)c1ccc(CC(C)C)cc1 (stereo not given)")
"> 30 µM"
>>> meas_value("CN(C)[C@@H]1C(O)=C(C(N)=O)C(=O)[C@@]2(O)C(O)=C3C(=O)c4c(O)ccc(Cl)c4[C@@H](O)[C@H]3C[C@@H]12")
"> 10 µM"
>>> meas_value("O=C1NCCN1CCN1CCC(c2cn(-c3ccc(F)cc3)c3ccc(Cl)cc23)CC1")
"> 30 µM"

Ask: Fill in: AC50 on Gamma-aminobutyric acid receptor subunit alpha-1 (Rattus norvegicus, UniProt P62813), entry C#CCN[C@@H]1CCc2ccccc21
Result: > 30 µM

Ask: Fill in: AC50 on Gamma-aminobutyric acid receptor subunit alpha-1 (Rattus norvegicus, UniProt P62813), entry NS(=O)(=O)c1cc(-c2nnn[nH]2)c(NCc2cccs2)cc1Cl [AZOSEMIDE]
Result: > 30 µM

* * *

Property: AC50; scope: individual compounds
- assay system: Alpha-2C adrenergic receptor (Homo sapiens, UniProt P18825); also: assay procedure not described here
- Sequence (P18825 whole entry): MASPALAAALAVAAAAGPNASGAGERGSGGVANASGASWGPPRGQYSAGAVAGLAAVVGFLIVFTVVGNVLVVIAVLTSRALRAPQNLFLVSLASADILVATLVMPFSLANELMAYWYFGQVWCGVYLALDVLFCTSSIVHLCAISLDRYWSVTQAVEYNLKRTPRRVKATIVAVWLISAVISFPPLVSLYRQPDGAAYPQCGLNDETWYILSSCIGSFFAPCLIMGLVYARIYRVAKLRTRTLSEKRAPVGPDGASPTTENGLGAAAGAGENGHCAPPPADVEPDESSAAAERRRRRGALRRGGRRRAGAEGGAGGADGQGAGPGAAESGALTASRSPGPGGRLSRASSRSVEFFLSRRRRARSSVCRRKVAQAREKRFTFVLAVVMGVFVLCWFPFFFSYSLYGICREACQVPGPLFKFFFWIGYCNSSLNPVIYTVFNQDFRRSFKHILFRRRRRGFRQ
- Type: functional

Before answering, review these 4 worked examples.
>>> meas_value("CCCCN1CCCCC1C(=O)Nc1c(C)cccc1C (stereo not given)")
"> 30 µM"
>>> meas_value("COc1cc(Nc2c(C#N)cnc3cc(OCCCN4CCN(C)CC4)c(OC)cc23)c(Cl)cc1Cl")
"1 µM"
>>> meas_value("Nc1ccc(/N=N/c2ccccc2)c(N)n1")
"3.7 µM"
>>> meas_value("Oc1ncnc2[nH]ncc12")
"> 10 µM"

Ask: Report AC50 for CO/N=C(\C(=O)N[C@@H]1C(=O)N2C(C(=O)[O-])=C(C[N+]3(C)CCCC3)CS[C@H]12)c1csc(N)n1
Result: > 300 µM

Ask: Report AC50 for NC(=O)C[S+]([O-])C(c1ccccc1)c1ccccc1 (stereo not given)
Result: > 10 µM

Ask: Report AC50 for C[N+](C)(C)CC(=O)O
Result: > 30 µM

Ask: Report AC50 for O=C(OCCN1CCOCC1)c1cccnc1Nc1cccc(C(F)(F)F)c1 [MORNIFLUMATE]
Result: > 30 µM

Ask: Report AC50 for C1COC(NC(C2CC2)C2CC2)=N1
Result: 6.8 µM

Ask: Report AC50 for CN(CCOc1ccc(NS(C)(=O)=O)cc1)CCc1ccc(NS(C)(=O)=O)cc1 [DOFETILIDE]
Result: > 10 µM

* * *

- assay system: Gamma-aminobutyric acid receptor subunit alpha-1 (Rattus norvegicus, UniProt P62813); also: assay procedure not described here
- Assay type: functional
quantity name: AC50

Before answering, review these 6 worked examples.
>>> meas_value("C=C1C[C@@H]2[C@H](CC[C@]3(C)C(=O)CC[C@@H]23)[C@@]2(C)C=CC(=O)C=C12")
"> 10 µM"
>>> meas_value("CC(C)NCC1CCc2cc(CO)c([N+](=O)[O-])cc2N1 (centres undefined)")
"> 10 µM"
>>> meas_value("COC(=O)[C@H]1[C@@H](OC(=O)c2ccccc2)C[C@@H]2CC[C@H]1N2C")
"> 30 µM"
>>> meas_value("C1COC(NC(C2CC2)C2CC2)=N1")
"> 10 µM"
>>> meas_value("CCOC(=O)[C@H](CCc1ccccc1)N[C@H]1CCCN2CCC[C@@H](C(=O)O)N2C1=O")
"> 30 µM"
>>> meas_value("C#CCN(C)[C@H](C)Cc1ccccc1")
"> 10 µM"

Ask: Fill in: AC50 on Gamma-aminobutyric acid receptor subunit alpha-1 (Rattus norvegicus, UniProt P62813), entry CC(C(=O)O)c1ccc(N2CC=CC2)c(Cl)c1 (centres undefined)
Result: > 10 µM

Ask: Fill in: AC50 on Gamma-aminobutyric acid receptor subunit alpha-1 (Rattus norvegicus, UniProt P62813), entry NC(N)=Nc1nc(CSCCC(N)=NS(N)(=O)=O)cs1
Result: > 10 µM

Ask: Fill in: AC50 on Gamma-aminobutyric acid receptor subunit alpha-1 (Rattus norvegicus, UniProt P62813), entry CO/N=C(\C(=O)N[C@@H]1C(=O)N2C(C(=O)OCOC(=O)C(C)(C)C)=C(C)CS[C@H]12)c1csc(N)n1
Result: > 30 µM
